Overview of reported fold change (FC) across a group of molecules:
test system: Hepatitis C virus; assay: Ratio of EC50 for wild-type Hepatitis C virus isolate Con1 to EC50 for Hepatitis C virus isolate Con1 transfected with NS5B polymerase of HCV genotype 2b in human Huh7.5 cells by hRLuc reporter gene assay; type: functional, Hepacivirus hominis, Huh-7

Molecule	fold change (FC)
CNC(=O)c1c(-c2ccc(F)cc2)oc2cc(N(CCO)S(C)(=O)=O)c(C3CC3)cc12 [NESBUVIR]	1
O=C(O)c1ccc2c(c1)nc(-c1ccc(OCc3cc(C(=O)N4CCC(O)CC4)ccc3-c3ccc(Cl)cc3)cc1F)n2C1CCCCC1	33
C[C@@]1(O)[C@H](O)[C@@H](CO)O[C@H]1n1ccc(N)nc1=O	0.4
COc1ccc2c(O[C@@H]3C[C@H]4C(=O)N[C@@]5(C(=O)O)C[C@@H]5/C=C\CCCCC[C@H](NC(=O)OC(C)(C)C)C(=O)N4C3)cc(-c3ccccn3)nc2c1	4
